biological target: USP24 (UniProt Q9UPU5); assay: log2 ratio of Biotin-Ahx-Ub-VS probe labelling (fragment/DMSO); higher = less target engagement (more negative = stronger competition), active = hit call of the paper (q ≤ 0.05, log2 ratio ≤ -1); settings: compound concentration: 200 uM; treatment time: 3 h
Sequence (Q9UPU5 whole entry, the tested form may be a part): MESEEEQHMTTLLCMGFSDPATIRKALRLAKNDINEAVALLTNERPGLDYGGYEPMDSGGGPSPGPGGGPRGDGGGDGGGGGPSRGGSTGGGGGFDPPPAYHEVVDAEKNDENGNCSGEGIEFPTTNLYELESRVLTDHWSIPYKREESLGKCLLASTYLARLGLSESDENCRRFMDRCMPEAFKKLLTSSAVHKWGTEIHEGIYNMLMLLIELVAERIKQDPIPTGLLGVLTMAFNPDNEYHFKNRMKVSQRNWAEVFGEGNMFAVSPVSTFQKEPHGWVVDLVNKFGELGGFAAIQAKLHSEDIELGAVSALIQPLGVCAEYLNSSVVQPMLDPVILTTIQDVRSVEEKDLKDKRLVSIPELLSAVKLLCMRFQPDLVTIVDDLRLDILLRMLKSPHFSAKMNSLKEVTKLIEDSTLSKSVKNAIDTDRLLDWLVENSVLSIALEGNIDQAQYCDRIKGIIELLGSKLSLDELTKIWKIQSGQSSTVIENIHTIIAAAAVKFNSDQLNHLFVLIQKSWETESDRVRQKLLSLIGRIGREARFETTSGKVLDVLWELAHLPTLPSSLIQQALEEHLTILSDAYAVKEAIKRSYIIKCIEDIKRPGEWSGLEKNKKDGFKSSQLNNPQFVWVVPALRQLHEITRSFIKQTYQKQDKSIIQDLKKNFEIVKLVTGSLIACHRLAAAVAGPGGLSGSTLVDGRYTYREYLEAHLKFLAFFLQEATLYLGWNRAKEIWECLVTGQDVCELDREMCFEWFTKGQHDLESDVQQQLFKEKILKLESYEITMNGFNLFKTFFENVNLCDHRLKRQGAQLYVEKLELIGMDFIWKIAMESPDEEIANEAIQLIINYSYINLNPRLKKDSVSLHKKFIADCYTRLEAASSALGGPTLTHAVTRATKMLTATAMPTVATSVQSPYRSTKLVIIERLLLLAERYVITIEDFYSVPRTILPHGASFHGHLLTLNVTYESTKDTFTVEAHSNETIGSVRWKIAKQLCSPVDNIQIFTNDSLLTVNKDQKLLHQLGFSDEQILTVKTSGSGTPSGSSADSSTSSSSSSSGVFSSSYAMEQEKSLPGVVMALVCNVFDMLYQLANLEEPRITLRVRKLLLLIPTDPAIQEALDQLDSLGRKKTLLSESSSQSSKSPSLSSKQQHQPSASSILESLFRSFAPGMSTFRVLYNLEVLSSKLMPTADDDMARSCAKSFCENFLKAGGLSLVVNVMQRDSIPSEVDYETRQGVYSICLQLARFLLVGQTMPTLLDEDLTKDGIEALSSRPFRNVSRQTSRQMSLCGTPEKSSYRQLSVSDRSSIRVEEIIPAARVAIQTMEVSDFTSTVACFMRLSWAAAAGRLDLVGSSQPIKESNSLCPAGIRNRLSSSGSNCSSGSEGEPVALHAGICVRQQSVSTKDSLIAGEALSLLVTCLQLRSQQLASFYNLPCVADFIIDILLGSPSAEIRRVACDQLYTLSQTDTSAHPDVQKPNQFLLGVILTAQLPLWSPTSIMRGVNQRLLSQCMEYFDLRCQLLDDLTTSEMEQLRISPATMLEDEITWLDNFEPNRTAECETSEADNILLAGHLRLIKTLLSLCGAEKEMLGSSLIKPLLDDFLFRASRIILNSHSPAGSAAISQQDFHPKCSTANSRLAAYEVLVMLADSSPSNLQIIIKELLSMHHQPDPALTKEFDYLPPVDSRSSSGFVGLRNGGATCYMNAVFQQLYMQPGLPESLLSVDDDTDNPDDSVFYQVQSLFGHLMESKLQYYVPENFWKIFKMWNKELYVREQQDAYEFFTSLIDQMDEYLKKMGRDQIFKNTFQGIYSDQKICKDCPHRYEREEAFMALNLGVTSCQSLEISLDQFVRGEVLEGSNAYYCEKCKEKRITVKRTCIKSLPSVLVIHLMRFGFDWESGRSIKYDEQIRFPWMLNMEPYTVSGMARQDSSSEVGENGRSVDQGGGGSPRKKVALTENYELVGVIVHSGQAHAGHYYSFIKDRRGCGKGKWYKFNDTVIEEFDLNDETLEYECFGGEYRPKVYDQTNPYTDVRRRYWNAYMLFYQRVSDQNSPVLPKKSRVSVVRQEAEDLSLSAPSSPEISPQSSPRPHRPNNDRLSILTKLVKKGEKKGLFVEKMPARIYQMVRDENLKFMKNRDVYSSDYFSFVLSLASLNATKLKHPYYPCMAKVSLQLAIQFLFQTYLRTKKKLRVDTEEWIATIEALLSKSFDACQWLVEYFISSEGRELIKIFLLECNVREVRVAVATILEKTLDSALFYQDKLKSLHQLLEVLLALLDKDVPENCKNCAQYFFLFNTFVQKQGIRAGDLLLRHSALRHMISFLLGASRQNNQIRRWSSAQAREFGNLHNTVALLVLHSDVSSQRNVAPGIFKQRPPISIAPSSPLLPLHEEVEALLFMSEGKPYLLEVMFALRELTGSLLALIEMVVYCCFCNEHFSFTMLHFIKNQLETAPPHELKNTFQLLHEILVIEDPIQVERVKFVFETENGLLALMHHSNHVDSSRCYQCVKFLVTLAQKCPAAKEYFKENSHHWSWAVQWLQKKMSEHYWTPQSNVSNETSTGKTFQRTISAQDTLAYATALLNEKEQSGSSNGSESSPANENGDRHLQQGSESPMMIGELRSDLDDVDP
# valid calls are class 1 (active), class 0 (inactive); nothing else

Below, 5 compounds whose answers are already recorded.
1) N#Cc1ccccc1N1CCN(C(=O)CCl)CC1
class 1
2) Cc1ccc(CNC(=O)CCl)nc1C.Cl
class 0
3) C[C@@H](NC(=O)CCl)c1cccc(C#N)c1
class 0
4) Cc1ccn2cc(CNC(=O)CCl)nc2c1.Cl
class 0
5) CCN(C(=O)CCl)C1CCS(=O)(=O)C1 (centres undefined)
class 0

Enquiry: Test call for this compound, please: CC1CCc2onc(CNC(=O)CCl)c2C1 (centres undefined)
Return: class 0

Enquiry: What outcome does the record of this test show for `Cc1ncsc1CCNC(=O)CCl` ?
Return: class 0

---

target: EIF3H (UniProt O15372); test: log2 ratio of Biotin-Ahx-Ub-VS probe labelling (fragment/DMSO); higher = less target engagement (more negative = stronger competition), active = hit call of the paper (q ≤ 0.05, log2 ratio ≤ -1); details: compound concentration: 200 uM; treatment time: 3 h
Sequence (O15372 whole entry, the tested form may be a part): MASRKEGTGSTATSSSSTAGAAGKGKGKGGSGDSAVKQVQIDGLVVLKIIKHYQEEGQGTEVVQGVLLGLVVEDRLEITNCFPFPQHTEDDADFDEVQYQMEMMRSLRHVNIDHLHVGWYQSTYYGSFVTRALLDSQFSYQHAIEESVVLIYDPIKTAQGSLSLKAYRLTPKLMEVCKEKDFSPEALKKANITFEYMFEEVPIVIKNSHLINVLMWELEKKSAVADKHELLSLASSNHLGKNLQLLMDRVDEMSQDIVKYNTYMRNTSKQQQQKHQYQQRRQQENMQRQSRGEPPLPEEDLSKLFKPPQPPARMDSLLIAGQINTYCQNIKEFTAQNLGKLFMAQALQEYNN
Would you kindly list log2 ratio of Biotin-Ahx-Ub-VS probe labelling for each of these compounds?
Answers are plain numbers.

1) Cc1cccn2cc(CCNC(=O)CCl)nc12.Cl
0.00132
2) O=C(CCl)NCc1cccc(N2CCCC2=O)c1
0.112
3) COc1ccc(-c2csc(NC(=O)CCl)n2)cc1
0.443
4) O=C(CCl)N[C@H]1CC[C@@H](CO)CC1
0.0529
5) O=C(CCl)Nc1ccc2c(c1)OC(F)(F)O2
0.0852

Below is a list of compounds. For each, state its recorded log2 ratio of Biotin-Ahx-Ub-VS probe labelling.
1. Cl.O=C(CCl)NC1(c2ncccn2)CCC1
2. Cc1nc(-c2cccc(NC(=O)CCl)c2)cs1
3. Cc1ccc(C(=O)NCCNC(=O)CCl)cc1

Return:
0.137
0.167
-0.101

# return log2 ratio of Biotin-Ahx-Ub-VS probe labelling for each item in the list
1. Cc1ccc(CNC(=O)CCl)nc1C.Cl
2. O=C(CCl)NC1CCS(=O)(=O)c2ccccc21 (stereo not given)

Return:
0.278
-0.0327

---

biological target: USP28 (UniProt Q96RU2); assay: log2 ratio of Biotin-Ahx-Ub-VS probe labelling (fragment/DMSO); higher = less target engagement (more negative = stronger competition), active = hit call of the paper (q ≤ 0.05, log2 ratio ≤ -1); conditions: compound concentration: 200 uM; treatment time: 3 h
Sequence (Q96RU2 whole entry, the tested form may be a part): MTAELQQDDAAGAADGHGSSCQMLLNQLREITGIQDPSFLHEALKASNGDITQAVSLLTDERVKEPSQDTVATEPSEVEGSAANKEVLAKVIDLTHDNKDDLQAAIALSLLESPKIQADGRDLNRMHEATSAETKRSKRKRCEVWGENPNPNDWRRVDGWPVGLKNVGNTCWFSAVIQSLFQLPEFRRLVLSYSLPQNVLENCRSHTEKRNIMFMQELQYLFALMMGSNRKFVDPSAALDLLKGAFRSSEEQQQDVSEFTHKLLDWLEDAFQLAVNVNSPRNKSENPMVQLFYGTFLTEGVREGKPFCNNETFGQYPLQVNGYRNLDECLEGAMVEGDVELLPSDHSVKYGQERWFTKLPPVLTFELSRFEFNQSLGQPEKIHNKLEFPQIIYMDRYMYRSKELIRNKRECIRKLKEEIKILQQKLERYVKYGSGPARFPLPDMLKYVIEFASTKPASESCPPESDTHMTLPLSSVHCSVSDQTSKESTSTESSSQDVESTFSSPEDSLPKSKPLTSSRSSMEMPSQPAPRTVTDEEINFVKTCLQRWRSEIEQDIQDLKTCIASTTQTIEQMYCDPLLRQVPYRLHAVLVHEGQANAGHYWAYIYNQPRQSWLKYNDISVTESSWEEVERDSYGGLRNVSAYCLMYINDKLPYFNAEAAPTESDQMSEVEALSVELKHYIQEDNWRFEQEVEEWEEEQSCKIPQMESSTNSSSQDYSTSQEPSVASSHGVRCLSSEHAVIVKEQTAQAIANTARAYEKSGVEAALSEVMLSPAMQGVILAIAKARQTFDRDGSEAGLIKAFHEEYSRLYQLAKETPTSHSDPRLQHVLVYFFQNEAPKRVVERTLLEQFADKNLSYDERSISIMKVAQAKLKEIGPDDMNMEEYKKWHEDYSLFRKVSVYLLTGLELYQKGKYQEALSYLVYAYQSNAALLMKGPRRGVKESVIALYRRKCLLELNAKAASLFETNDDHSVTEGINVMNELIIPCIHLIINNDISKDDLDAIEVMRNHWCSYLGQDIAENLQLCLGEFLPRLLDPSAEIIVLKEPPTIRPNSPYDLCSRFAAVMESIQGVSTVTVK
value.kind: log2 ratio of Biotin-Ahx-Ub-VS probe labelling
Give bare numbers.

1) NC(=O)C1CCCN(C(=O)CCl)C1 (centres undefined)
-0.348

Hey, quick one: what's log2 ratio of Biotin-Ahx-Ub-VS probe labelling for each of these?
1. O=C(CCl)NC1CCC(C(F)(F)F)CC1 (centres undefined)
2. COCC[C@@H](NC(=O)CCl)c1ccccc1
3. O=C(CCl)NCC(=O)N1CCCC1
4. CCN(Cc1ccc(C#N)cc1F)C(=O)CCl
5. O=C(CCl)Nc1cccc(NC(=O)c2ccccc2)c1
6. COc1ccc(C2CCCN2C(=O)CCl)c(OC)c1 (centres undefined)
7. Cc1cc(NC(=O)CCl)n(-c2ccccc2)n1

Return:
1: -0.705; 2: -0.388; 3: -0.302; 4: -0.624; 5: -0.173; 6: -0.41; 7: -1.03

---

target: EIF3F (UniProt O00303); assay: log2 ratio of Biotin-Ahx-Ub-VS probe labelling (fragment/DMSO); higher = less target engagement (more negative = stronger competition), active = hit call of the paper (q ≤ 0.05, log2 ratio ≤ -1); details: compound concentration: 200 uM; treatment time: 3 h
Sequence (O00303 whole entry, the tested form may be a part): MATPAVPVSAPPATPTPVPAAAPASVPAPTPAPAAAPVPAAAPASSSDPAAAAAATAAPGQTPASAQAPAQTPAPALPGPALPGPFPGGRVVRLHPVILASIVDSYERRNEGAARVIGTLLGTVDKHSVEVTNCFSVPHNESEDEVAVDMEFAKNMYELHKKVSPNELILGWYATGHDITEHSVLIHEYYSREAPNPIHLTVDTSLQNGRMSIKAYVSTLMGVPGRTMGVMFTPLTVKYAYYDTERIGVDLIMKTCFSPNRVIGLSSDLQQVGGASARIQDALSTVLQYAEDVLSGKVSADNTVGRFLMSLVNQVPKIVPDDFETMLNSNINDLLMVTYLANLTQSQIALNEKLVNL
Label Yes when log2 ratio of Biotin-Ahx-Ub-VS probe labelling >= -0.09; otherwise No.

Use these answered entries as a reference point.
1. CN(C)C(=O)c1ccc(NC(=O)CCl)cc1
Yes
2. Cc1cnc2[nH]cc(CCNC(=O)CCl)c2c1
No

Enquiry: Could you verify whether the entry O=C(CCl)N1CCCCCC1c1ncon1 (configuration not stated) shows log2 ratio of Biotin-Ahx-Ub-VS probe labelling of no less than -0.09?
Return: Yes

Enquiry: Please indicate if the recorded log2 ratio of Biotin-Ahx-Ub-VS probe labelling for `O=C(CCl)Nc1ccc(F)cc1Cl` meets or exceeds -0.09.
Return: No

Enquiry: Is log2 ratio of Biotin-Ahx-Ub-VS probe labelling for `O=C(CCl)N1CCC(c2nc3ccccc3o2)CC1` at or above -0.09?
Return: Yes

Enquiry: Check the entry `O=C(CCl)N[C@H]1CC[C@@H](CO)CC1` : does log2 ratio of Biotin-Ahx-Ub-VS probe labelling equal or exceed -0.09?
Return: No

---

target: USP7 (UniProt Q93009); assay: log2 ratio of Biotin-Ahx-Ub-VS probe labelling (fragment/DMSO); higher = less target engagement (more negative = stronger competition), active = hit call of the paper (q ≤ 0.05, log2 ratio ≤ -1); settings: compound concentration: 200 uM; treatment time: 3 h
value.kind: log2 ratio of Biotin-Ahx-Ub-VS probe labelling
Give bare numbers.

Worked examples, 4 compounds total:
1. Cc1ccccc1CN(C)C(=O)CCl
-1.57
2. Cc1nnc(C(NC(=O)CCl)c2ccccc2)n1C (stereo not drawn)
0.438
3. O=C(CCl)N1CCN(C(=O)N2CCCCC2)CC1
-1.12
4. CCc1c[nH]c(CNC(=O)CCl)n1.Cl
-0.288

Would you mind giving log2 ratio of Biotin-Ahx-Ub-VS probe labelling for every compound in the list below?
1. CC(=O)Nc1ccc(NC(=O)CCl)cc1
2. Cc1conc1C1CN(C(=O)CCl)C1
3. O=C(CCl)NCc1ccc(Cl)cc1
4. C[C@H]1CN(C(=O)CCl)CCN1C(=O)c1cnn(C)c1.Cl
5. Cc1nc(CN2CCCN(C(=O)CCl)CC2)no1.Cl
6. O=C(CCl)N1CCC(C(O)c2ccc(F)cc2)CC1 (stereo not drawn)
7. Cc1cccc(N(CCC#N)C(=O)CCl)c1C

Return:
1. -0.267
2. -1.04
3. -0.206
4. -0.353
5. -0.0348
6. -0.0695
7. -0.47

Required: log2 ratio of Biotin-Ahx-Ub-VS probe labelling, one value per compound below.
1. CN1c2ccccc2C(NC(=O)CCl)CS1(=O)=O (stereo not drawn)
2. Cl.O=C(CCl)NCCc1ncc(F)cc1F

Return:
1: -0.369; 2: -0.34

---

biological target: USP39 (UniProt Q53GS9); experiment: log2 ratio of Biotin-Ahx-Ub-VS probe labelling (fragment/DMSO); higher = less target engagement (more negative = stronger competition), active = hit call of the paper (q ≤ 0.05, log2 ratio ≤ -1); conditions: compound concentration: 200 uM; treatment time: 3 h
Sequence (Q53GS9 whole entry, the tested form may be a part): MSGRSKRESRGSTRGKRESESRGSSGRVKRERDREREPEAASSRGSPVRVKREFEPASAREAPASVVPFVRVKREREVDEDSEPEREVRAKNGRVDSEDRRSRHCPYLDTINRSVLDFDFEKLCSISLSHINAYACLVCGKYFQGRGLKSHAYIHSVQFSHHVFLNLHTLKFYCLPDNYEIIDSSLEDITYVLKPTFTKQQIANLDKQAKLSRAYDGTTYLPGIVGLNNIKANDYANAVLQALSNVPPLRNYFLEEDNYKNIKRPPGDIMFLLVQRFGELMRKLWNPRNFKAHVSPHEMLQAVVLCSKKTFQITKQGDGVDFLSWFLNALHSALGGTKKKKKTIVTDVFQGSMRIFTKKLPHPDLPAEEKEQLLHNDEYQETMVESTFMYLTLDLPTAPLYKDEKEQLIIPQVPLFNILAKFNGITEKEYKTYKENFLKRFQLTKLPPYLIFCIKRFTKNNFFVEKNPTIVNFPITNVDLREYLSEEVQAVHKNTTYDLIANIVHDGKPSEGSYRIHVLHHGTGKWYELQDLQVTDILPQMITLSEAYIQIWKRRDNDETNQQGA
value.kind: log2 ratio of Biotin-Ahx-Ub-VS probe labelling

Look over these answered cases.
1) COCC[C@@H](NC(=O)CCl)c1ccccc1
-0.0498 (inactive)
2) O=C(CCl)N1CCOCC1C1CC1 (centres undefined)
0.265 (inactive)
3) CCc1c[nH]c(CNC(=O)CCl)n1.Cl
0.178 (inactive)
4) CC(c1ccccc1)N(C)C(=O)CCl (centres undefined)
-0.413 (inactive)
5) O=C(CCl)N1CCCC2CCCCC21 (centres undefined)
-0.107 (inactive)
6) Cl.Cn1nccc1C(NC(=O)CCl)c1ccccc1 (centres undefined)
0.0185 (inactive)
7) O=C(CCl)N1CC=C(c2c[nH]c3ccccc23)CC1
0.536 (inactive)
8) O=C(CCl)Nc1ccc2c(c1)OC(F)(F)O2
0.433 (inactive)
9) CS(=O)(=O)c1ccc(NC(=O)CCl)cc1
-0.186 (inactive)
10) C#Cc1cccc(NC(=O)CCl)c1
0.046 (inactive)

List reported log2 ratio of Biotin-Ahx-Ub-VS probe labelling for each of these molecules:
1. O=C(CCl)Nc1nnc(CC(F)(F)F)o1
2. O=C(CCl)N1CCc2ccccc2C(O)C1 (centres undefined)
3. Cc1nnc(C(NC(=O)CCl)c2ccccc2)n1C (centres undefined)
4. Cc1cccc(N(CCC#N)C(=O)CCl)c1C

Return:
1. 0.00671 (inactive)
2. 0.0381 (inactive)
3. 0.132 (inactive)
4. -0.305 (inactive)

---

Target: UniProt Q9UGI0
Sequence (whole entry): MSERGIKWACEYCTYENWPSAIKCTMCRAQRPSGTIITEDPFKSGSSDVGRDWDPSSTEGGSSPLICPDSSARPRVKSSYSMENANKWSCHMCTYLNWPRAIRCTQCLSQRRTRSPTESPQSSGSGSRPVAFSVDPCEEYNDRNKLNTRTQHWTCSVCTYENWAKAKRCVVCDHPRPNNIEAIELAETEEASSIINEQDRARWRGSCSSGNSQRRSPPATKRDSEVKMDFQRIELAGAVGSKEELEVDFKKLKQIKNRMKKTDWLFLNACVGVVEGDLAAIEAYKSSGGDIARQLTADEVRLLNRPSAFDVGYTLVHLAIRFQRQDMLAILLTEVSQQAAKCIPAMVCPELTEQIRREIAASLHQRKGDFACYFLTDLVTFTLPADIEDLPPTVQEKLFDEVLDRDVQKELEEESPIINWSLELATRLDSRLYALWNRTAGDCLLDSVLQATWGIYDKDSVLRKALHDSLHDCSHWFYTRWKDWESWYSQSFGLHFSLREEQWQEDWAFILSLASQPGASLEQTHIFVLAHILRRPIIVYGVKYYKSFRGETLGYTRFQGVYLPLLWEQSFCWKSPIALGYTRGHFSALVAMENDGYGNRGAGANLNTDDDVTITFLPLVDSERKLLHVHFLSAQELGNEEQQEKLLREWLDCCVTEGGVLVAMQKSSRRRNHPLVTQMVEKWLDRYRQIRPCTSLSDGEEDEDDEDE
Experiment: log2 ratio of Biotin-Ahx-Ub-VS probe labelling (fragment/DMSO); higher = less target engagement (more negative = stronger competition), active = hit call of the paper (q ≤ 0.05, log2 ratio ≤ -1)
Details: compound concentration: 200 uM; treatment time: 3 h
Your response should consist of one outcome taken from active, inactive

Would you please look over these solved cases?
1. O=C(CCl)N1CCN2C(=O)CCC2C1 (stereo not drawn)
inactive
2. O=C(CCl)N1CCC(O)(Cc2ccc(F)cc2)C1 (stereo not drawn)
inactive
3. Cc1nc(CC2CCN(C(=O)CCl)CC2)no1
inactive
4. COCC1C=CCCN1C(=O)CCl (stereo not drawn)
active
5. Cc1ncc2c(n1)CCN(C(=O)CCl)C2
inactive

Enquiry: Which result was noted for this molecule in the test: CC(=O)C1CCCCN1C(=O)CCl (stereo not drawn)
Return: inactive

Enquiry: // param item: CC(c1ccccc1)N(C)C(=O)CCl (stereo not drawn) ; yields the recorded call
Return: inactive

Enquiry: Outcome? `O=C(CCl)N1CCC(S(=O)(=O)c2ccc(F)cc2)CC1`
Return: inactive

Reference source for all entries: the supplement of paper PMC11732987
